FYI, the data here is from paper PMC3654831.

# TEST TARGET: T1, polyhistidine-tagged Get5-UBL, wild type (S. cerevisiae, UniProt Q12285 74-151)
# T1 sequence: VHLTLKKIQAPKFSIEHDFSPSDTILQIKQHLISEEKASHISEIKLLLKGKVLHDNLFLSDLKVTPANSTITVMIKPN
# RUN DESCRIPTION: SPR
READOUT TYPE: Kd (µM)
Give the quantity in µM, number only.

Sample Sgt2 N-terminal homodimerization domain (Sgt2-N), wild type (domain or fragment, S. cerevisiae) SASKEEIAALIVNYFSSIVEKKEISEDGADSLNVAMDCISEAFGFEREAVSGILGKSEFKGQHLADILNSA ; Kd observed: 3.78
